Target sequence: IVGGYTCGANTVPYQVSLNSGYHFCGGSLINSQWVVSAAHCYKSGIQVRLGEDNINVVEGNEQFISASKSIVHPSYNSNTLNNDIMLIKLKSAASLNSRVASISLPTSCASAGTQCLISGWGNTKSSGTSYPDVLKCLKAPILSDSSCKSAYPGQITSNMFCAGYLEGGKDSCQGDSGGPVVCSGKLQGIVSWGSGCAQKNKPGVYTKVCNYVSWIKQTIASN
Mark Satisfied only for IC50 values smaller than 0.5 nM; exact matches and larger values are Not satisfied.

Previously resolved entries follow.
Data request: Criterion: IC50 strictly below 0.5 nM. Is it met by CC1(C(=O)Oc2cc(Cl)cc(OC(=O)c3ccc(NC(=N)N)cc3)c2)CC1 ?
Data returned: Satisfied

Data request: Just wondering, is IC50 of CN(C)C(=O)COC(=O)Cc1ccc(OC(=O)c2ccc(NC(=N)N)cc2)cc1 [Comp. Ex. 1, reference compound] below 0.5 nM?
Data returned: Not satisfied

Data request: A record lists N=C(N)Nc1ccc(C(=O)Oc2cc(Cl)cc(OC(=O)C3CCCCC3)c2)cc1 . Is its IC50 below 0.5 nM?
Data returned: Satisfied

Data request: IC50 strictly < 0.5 nM for this compound? N=C(N)Nc1ccc(C(=O)Oc2cc(Cl)cc(Cl)c2)cc1 [Comp. Ex. 2, reference compound]
Data returned: Not satisfied

Others:
Data request: Hello, is IC50 of the following compound strictly smaller than 0.5 nM? N=C(N)Nc1ccc(C(=O)Oc2cccc(OC(F)(F)F)c2)cc1
Data returned: Satisfied
